# Tested on: E. faecium GC 4556
# assayDetails: MIC, broth microdilution
# conditionsUsed: Enterococcus faecium, GC4556, E. faecium GC 4556; Water pre-incubation
recordedEndpoint: MIC (µg/mL)
State just the number; it will be interpreted in µg/mL.

(Q) Please list MIC recorded for the molecule CCCCN(CC(=O)Nc1cc(N(C)C)c2c(c1O)C(=O)C1=C(O)[C@]3(O)C(=O)C(C(N)=O)=C(O)[C@@H](N(C)C)[C@@H]3C[C@@H]1C2)C(=O)OCOC(=O)c1ccc(F)cc1 [Example 4]
(A) 4

(Q) Please supply the value of reported MIC for the item CCCN(CC(=O)Nc1cc(N(C)C)c2c(c1O)C(=O)C1=C(O)[C@]3(O)C(=O)C(C(N)=O)=C(O)[C@@H](N(C)C)[C@@H]3C[C@@H]1C2)C(=O)OCOC(=O)Cc1ccccc1 [Example 11]
(A) 0.5

(Q) Using known records, supply MIC for CCCN(CC(=O)Nc1cc(N(C)C)c2c(c1O)C(=O)C1=C(O)[C@]3(O)C(=O)C(C(N)=O)=C(O)[C@@H](N(C)C)[C@@H]3C[C@@H]1C2)C(=O)OCOC(=O)c1ccc(OC)cc1 [Example 6]
(A) 2

(Q) Complete the entry with MIC for CCCN(CC(=O)Nc1cc(N(C)C)c2c(c1O)C(=O)C1=C(O)[C@]3(O)C(=O)C(C(N)=O)=C(O)[C@@H](N(C)C)[C@@H]3C[C@@H]1C2)C(=O)OCOC(=O)C(C)(C)C [Example 9]
(A) 0.5

(Q) Determine its reported MIC: CCCN(CC(=O)Nc1cc(N(C)C)c2c(c1O)C(=O)C1=C(O)[C@]3(O)C(=O)C(C(N)=O)=C(O)[C@@H](N(C)C)[C@@H]3C[C@@H]1C2)C(=O)OCC(C)C [Example 16]
(A) 8

* * *

# System: S. aureus GC 6469
# assayDetails: MIC, broth microdilution
# conditionsUsed: Staphylococcus aureus, GC6469, S. aureus GC 6469; Water pre-incubation
recordedEndpoint: MIC (µg/mL)
Report the figure in µg/mL without appending any unit label.

(Q) Output measured MIC for this item: CCCN(CC(=O)Nc1cc(N(C)C)c2c(c1O)C(=O)C1=C(O)[C@]3(O)C(=O)C(C(N)=O)=C(O)[C@@H](N(C)C)[C@@H]3C[C@@H]1C2)C(=O)OCOC(=O)c1ccc(C)cc1 [Example 5]
(A) 4

(Q) Consider the compound CCCN(CC(=O)Nc1cc(N(C)C)c2c(c1O)C(=O)C1=C(O)[C@]3(O)C(=O)C(C(N)=O)=C(O)[C@@H](N(C)C)[C@@H]3C[C@@H]1C2)C(=O)OCC [Example 15] and give its recorded MIC.
(A) 8

(Q) Quickly give me recorded MIC for CCCN(CC(=O)Nc1cc(N(C)C)c2c(c1O)C(=O)C1=C(O)[C@]3(O)C(=O)C(C(N)=O)=C(O)[C@@H](N(C)C)[C@@H]3C[C@@H]1C2)C(=O)OCOC(=O)c1ccc(F)cc1 [Example 8]
(A) 8

(Q) Report MIC for CCCCN(CC(=O)Nc1cc(N(C)C)c2c(c1O)C(=O)C1=C(O)[C@]3(O)C(=O)C(C(N)=O)=C(O)[C@@H](N(C)C)C3CC1C2)C(=O)OCOC(=O)C(C)C (some centres unmarked) [Example 1]
(A) 8

(Q) Using the record for CCCCN(CC(=O)Nc1cc(N(C)C)c2c(c1O)C(=O)C1=C(O)[C@]3(O)C(=O)C(C(N)=O)=C(O)[C@@H](N(C)C)[C@@H]3C[C@@H]1C2)C(=O)OCOC(=O)Cc1ccccc1 [Example 12] , state its measured MIC.
(A) 16
